System: LPS induced IL-23 (p19/p40) in DC cells
METHOD DESCRIPTION: IL23-p19 ELISA, dendritic (DC) cells differentiated from human PBMC, LPS stimulated
Format: cell-based
TEST CONDITIONS: Table 2, IFNγ 50 ng/ml, LPS 1 μg/ml, 18 hours, 10 pt
READOUT TYPE: EC50 (nM)

// worked examples, EC50 included
# MOLECULE, READOUT TYPE, MEASURED
records = [
    ("CCO[C@H]1CC[C@H](n2cc(NC(=O)c3coc(-c4cnn(COP(=O)(O)O)c4)n3)c(-c3nc(F)ccc3F)n2)CC1 [Compound I-12]", "EC50", 2400),
    ("CCOC1CCC(n2cc(NC(=O)c3coc(-c4cnn(COP(=O)(O)O)c4)n3)c(-c3nc(F)ccc3F)n2)CC1 (stereo not shown) [Compound I-8]", "EC50", 7640),
    ("CCO[C@H]1C[C@@H](n2cc(NC(=O)c3coc(-c4cn[nH]c4)n3)c(-c3nc(F)ccc3F)n2)C1 [Compound I-10]", "EC50", 30.9),
    ("O=C(Nc1cn([C@H]2CC[C@H](N3CCOCC3)CC2)nc1-c1ncccn1)c1coc(-c2cn[nH]c2)n1 [Compound I-2]", "EC50", 84.2),
    ("O=C(Nc1cn([C@H]2CC[C@H](N3CCOCC3)CC2)nc1-c1nc(C(F)(F)F)ccc1F)c1coc(-c2cn[nH]c2)n1 [Compound I-7]", "EC50", 75.7),
]

(I) CCO[C@H]1CC[C@H](n2cc(NC(=O)c3coc(-c4cn[nH]c4F)n3)c(-c3cnccn3)n2)CC1 [Compound I-32]
(II) CCO[C@H]1CC[C@H](n2cc(NC(=O)c3coc(-c4cnn(COP(=O)(O)O)c4)n3)c(-c3cnccn3)n2)CC1 [Compound I-17]
(III) CCOC1CCC(n2cc(NC(=O)c3coc(-c4cnn(COP(=O)(O)O)c4)n3)c(-c3cnccn3)n2)CC1 (stereo not shown) [Compound I-18]
Task: rank_up(items): orders items by reported EC50 in ascending numerical order. Returns: the labels listed in the requested order.
Result: II, III, I
(II: 15.6 nM, III: 25.6 nM, I: 417 nM)

(1) CCO[C@H]1CC[C@H](n2cc(NC(=O)c3coc(-c4cn[nH]c4)n3)c(-c3ncccn3)n2)CC1 [Compound I-3]
(2) O=C(Nc1cn([C@H]2CC[C@H](O)CC2)nc1-c1nc(F)ccc1F)c1coc(-c2cn[nH]c2)n1 [Compound I-11]
Task: I'm curious whether 1 or 2 has the smaller EC50 number. Which is it? Label of pick, please.
Result: 1

The measured values listed here are drawn from patent US11993594B2.
